conditions: basic group
READOUT TYPE: pKa
Reply: number alone, nothing else.

Task: Consider the compound Clc1cc2cccnc2c2ncccc12 and give its recorded pKa.
Output: 4.22

Task: Look up and report measured pKa for this entry: C[C@H]1C[C@@H]2CCN1C2
Output: 10.6

Task: Provide measured pKa value, entry: COc1nc2ccccc2nc1OC
Output: -1.15

Task: Output pKa of CN(C)c1cc[n+](O)cc1
Output: -7.58

---

details: acidic group
READOUT TYPE: pKa
Just the number, please, no unit attached.

Known results for compounds:
Cc1n[nH]c2ncnc(N)c12 ... 11.1
C=CC(O)OCC(C)O (stereo unspecified) ... 5.5
CC/C=C/CC(=O)O ... 4.52

Task: Hello, please tell me recorded pKa for this one: Oc1ccc(Nc2ccc(O)cc2)cc1
Output: 9.44

Task: Provide measured pKa value, entry: COc1cc(C=O)ccc1O
Output: 7.38

Task: Give me measured pKa, please, for this compound: O=C(O)c1sccc1[N+](=O)[O-]
Output: 2.68

Task: Let me know recorded pKa for CC(=S)NCc1ccccc1 , thanks.
Output: 13

Task: Supply recorded pKa for O=C1C(=O)C(c2ccccc2)C1=O here.
Output: 0.37
